Target: SHP1 (Homo sapiens, UniProt P29350)
Sequence (P29350 244-515 limits assumed): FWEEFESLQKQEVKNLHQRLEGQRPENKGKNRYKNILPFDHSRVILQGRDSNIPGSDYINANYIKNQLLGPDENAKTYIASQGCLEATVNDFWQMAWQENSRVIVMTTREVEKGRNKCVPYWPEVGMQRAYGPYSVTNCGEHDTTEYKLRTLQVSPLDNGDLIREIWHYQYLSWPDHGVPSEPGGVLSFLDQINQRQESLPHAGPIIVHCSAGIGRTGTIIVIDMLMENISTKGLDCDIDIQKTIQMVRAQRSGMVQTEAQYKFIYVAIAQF
property.label: IC50

Q: # returns recorded IC50 (system: SHP1 (Homo sapiens, UniProt P29350)) for C=CCc1ccc(O)c(-c2ccc(O)c(CC=C)c2)c1
Ans: 763 µM
